- System: human maximum recommended daily dose, FDA database
- protocol text: DSSTox (FDAMDD) FDA Maximum (Recommended) Daily Dose Database
- reported conditions: TherapeuticCategory: antihypertensive; antianginal; antiarrhythmic; active compounds read low
outcome measure: maximum recommended daily dose (mmol/kg-bw/day)
Simply state the number, no unit and no words.

// known answers, use as guide
1) CC(C)(C)NCC(O)CSc1nc(-c2ccc(C(N)=O)s2)cs1 (stereo not given): 0.000896
2) CC(C)NCC(O)COc1ccc(CC(N)=O)cc1 (stereo not given): 0.0125
3) CC(C)(C)NCC(O)COc1ccccc1C#N (stereo not given): 0.00269

Exercise: I would be grateful if you could share the reported maximum recommended daily dose (mmol/kg-bw/day) for CC(C)(C)NC[C@H](O)COc1ccccc1C1CCCC1 .
Key: 0.00456

Exercise: I would be grateful if you could share the reported maximum recommended daily dose (mmol/kg-bw/day) for CC(C)NCC(O)COc1cccc2ccccc12 (stereo not given) .
Key: 0.0413

---

Entries and their maximum recommended daily dose (mmol/kg-bw/day)
- System: human maximum recommended daily dose, FDA database
- protocol text: DSSTox (FDAMDD) FDA Maximum (Recommended) Daily Dose Database
- reported conditions: TherapeuticCategory: antibacterial; active compounds read low
Simply state the number, no unit and no words.

1. CN(C)[C@@H]1C(=O)C(C(=O)NCN2CCCC2)=C(O)[C@@]2(O)C(=O)C3=C(O)c4c(O)cccc4[C@@](C)(O)C3C[C@@H]12 (some centres not stated): 0.0111
2. Cc1onc(-c2ccccc2)c1C(=O)N[C@@H]1C(=O)N2[C@@H]1SC(C)(C)[C@@H]2C(=O)O: 0.249
3. CO[C@@]1(NC(=O)C(C(=O)O)c2ccc(O)cc2)C(=O)N2C(C(=O)O)=C(CSc3nnnn3C)CO[C@@H]21 (some centres not stated): 0.128
4. CCC[C@@H]1C[C@@H](C(=O)N[C@@H]([C@H]2O[C@H](SC)[C@H](O)[C@@H](O)[C@H]2O)[C@H](C)Cl)N(C)C1: 0.0706

Exercise: I would be grateful if you could share the reported maximum recommended daily dose (mmol/kg-bw/day) for CO[C@H]1C[C@H](O[C@H]2[C@H](C)[C@@H](O[C@@H]3O[C@H](C)C[C@H](N(C)C)[C@H]3OC(C)=O)[C@@H](C)C[C@]3(CO3)C(=O)[C@H](C)[C@@H](OC(C)=O)[C@@H](C)[C@@H](C)OC(=O)[C@@H]2C)O[C@@H](C)[C@@H]1OC(C)=O .
Key: 0.0409

Exercise: I would be grateful if you could share the reported maximum recommended daily dose (mmol/kg-bw/day) for CCn1cc(C(=O)O)c(=O)c2cc3c(cc21)OCO3 .
Key: 0.0957

Exercise: I would be grateful if you could share the reported maximum recommended daily dose (mmol/kg-bw/day) for O=C(O)C1=C(CSc2nnnn2CS(=O)(=O)O)CS[C@@H]2[C@H](NC(=O)[C@H](O)c3ccccc3)C(=O)N12 .
Key: 0.0308

---

- System: human maximum recommended daily dose, FDA database
- protocol text: DSSTox (FDAMDD) FDA Maximum (Recommended) Daily Dose Database
- reported conditions: TherapeuticCategory: research; active compounds read low
outcome measure: maximum recommended daily dose (mmol/kg-bw/day)
Simply state the number, no unit and no words.

Exercise: I would be grateful if you could share the reported maximum recommended daily dose (mmol/kg-bw/day) for Nc1ncnc2nc[nH]c12 .
Key: 0.111
